biological target: T1, recombinant human cardiac troponin T (human, UniProt P45379 2-298); test: SPR (Biacore T200, 37 C), Fab captured, cTnT analyte
T1 construct: In the ECL assay the cTnT came from the Troponin T hs CalSet calibrator; also called cTnT; TnT
Entries and their pKd
Scale note: pKd = -log10(concentration in M).

Some solved entries appear below for comparison.
anti-cTnT Fab mutant 11 (Y34I, F60W, V101Y) (Fab, V domains shown, also called combination 11) VH: EVQLQQSGPELVKPGASVKMSCKASGYTFTDYIMKWVKQSHGKSLEWIGDINPNNGETWYNQKFKDKATLTVDKSSSTAYMQLNSLTSEDSAVYYCATRYFDYWGQGTTLTVSS VL: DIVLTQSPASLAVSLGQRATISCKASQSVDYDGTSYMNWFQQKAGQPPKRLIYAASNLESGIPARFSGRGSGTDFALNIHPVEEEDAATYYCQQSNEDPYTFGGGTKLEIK ... 9.00
anti-cTnT Fab mutant 15 (Y34I, Y104F) (Fab, V domains shown, also called combination 15) VH: EVQLQQSGPELVKPGASVKMSCKASGYTFTDYIMKWVKQSHGKSLEWIGDINPNNGETFYNQKFKDKATLTVDKSSSTAYMQLNSLTSEDSAVYYCATRVFDFWGQGTTLTVSS VL: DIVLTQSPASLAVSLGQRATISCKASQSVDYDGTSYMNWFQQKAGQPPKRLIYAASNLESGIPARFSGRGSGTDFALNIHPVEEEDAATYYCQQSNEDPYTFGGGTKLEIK ... 8.96
anti-cTnT Fab mutant 4 (Y34F, F60W, Y104F) (Fab, V domains shown, also called combination 4) VH: EVQLQQSGPELVKPGASVKMSCKASGYTFTDYFMKWVKQSHGKSLEWIGDINPNNGETWYNQKFKDKATLTVDKSSSTAYMQLNSLTSEDSAVYYCATRVFDFWGQGTTLTVSS VL: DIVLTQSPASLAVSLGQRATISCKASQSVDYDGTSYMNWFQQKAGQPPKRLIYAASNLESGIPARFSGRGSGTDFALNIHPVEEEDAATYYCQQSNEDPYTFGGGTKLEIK ... 9.57
anti-cTnT Fab mutant 3 (Y34F, F60W, V101Y) (Fab, V domains shown, also called combination 3) VH: EVQLQQSGPELVKPGASVKMSCKASGYTFTDYFMKWVKQSHGKSLEWIGDINPNNGETWYNQKFKDKATLTVDKSSSTAYMQLNSLTSEDSAVYYCATRYFDYWGQGTTLTVSS VL: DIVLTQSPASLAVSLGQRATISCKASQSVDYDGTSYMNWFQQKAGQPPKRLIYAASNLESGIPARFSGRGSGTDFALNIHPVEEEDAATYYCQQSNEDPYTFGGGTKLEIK ... 9.43

Now take the following binder into account.
Recorded pKd of anti-cTnT Fab mutant 12 (Y34I, F60W, Y104F) (Fab, V domains shown, also called combination 12; combination "12") VH: EVQLQQSGPELVKPGASVKMSCKASGYTFTDYIMKWVKQSHGKSLEWIGDINPNNGETWYNQKFKDKATLTVDKSSSTAYMQLNSLTSEDSAVYYCATRVFDFWGQGTTLTVSS VL: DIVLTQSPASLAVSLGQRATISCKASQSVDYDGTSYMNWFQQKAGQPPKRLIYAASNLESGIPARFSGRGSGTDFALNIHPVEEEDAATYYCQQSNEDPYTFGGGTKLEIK , please. 9.49
